Target: S1P1 (membranes prepared from S1P1/CHO cells) (Homo sapiens (Human), UniProt P21453)
Sequence (P21453 whole entry): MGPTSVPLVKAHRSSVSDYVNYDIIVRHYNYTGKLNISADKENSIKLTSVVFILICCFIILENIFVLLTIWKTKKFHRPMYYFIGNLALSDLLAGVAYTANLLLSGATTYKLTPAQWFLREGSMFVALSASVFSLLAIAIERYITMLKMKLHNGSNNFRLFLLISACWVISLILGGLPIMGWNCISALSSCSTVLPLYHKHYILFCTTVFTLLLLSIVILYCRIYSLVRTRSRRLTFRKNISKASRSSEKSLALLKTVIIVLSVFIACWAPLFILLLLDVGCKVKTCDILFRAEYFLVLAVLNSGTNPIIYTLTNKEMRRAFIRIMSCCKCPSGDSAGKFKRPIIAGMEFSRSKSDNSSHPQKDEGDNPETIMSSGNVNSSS
Assay: Receptor [35S] GTPγS binding assay (S1P1 GTPγS)
Type: biochemical
Conditions: phosphate examples; read-out: S1P1 GTPγS
Procedure: Receptor [^35S] GTPγS Binding Assays: (S1P1 GTPγS/S1P3 GTPγS) Compounds were loaded in a 384 Falcon v-bottom plate (0.5 μl/well in a 11 point, 3-fold dilution). Membranes prepared from S1P1/CHO cells or EDG3-Gal5-bla HEK293T cells (EDG3 equivalent S1P3) were added to the compound plate (40 μl/well, final protein 3 μg/well) with MULTIDROP®. [^35S] […]
Observable: EC50

>  <Compound>
N[C@]1(COP(=O)(O)O)CC[C@H](c2ccc3c(c2)CC[C@H](Cc2ccccc2)C3)C1 [compound 572]

>  <Reported Measurement>
< 10 nM

$$$$
>  <Compound>
CCCCSC[C@H]1CCc2cc([C@@H]3CC[C@](N)(COP(=O)(O)O)C3)ccc2C1 [compound 505]

>  <Reported Measurement>
10 to 100 nM

$$$$
>  <Compound>
Cc1cccc(/C=C/[C@@H]2CCc3cc([C@H]4CC[C@](N)(COP(=O)(O)O)C4)ccc3C2)c1 [compound 644]

>  <Reported Measurement>
10 to 100 nM

$$$$
>  <Compound>
CC(C)Oc1ccc(C[C@@H]2CCc3cc([C@H]4CC[C@](N)(COP(=O)(O)O)C4)ccc3C2)cc1 [compound 559]

>  <Reported Measurement>
100 to 1000 nM

$$$$
>  <Compound>
CCCC[C@H]1CCCC2(CCc3cc([C@H]4CC[C@](N)(COP(=O)(O)O)C4)ccc3C2)O1 (some centres unmarked) [compound 632]

>  <Reported Measurement>
10 to 100 nM

$$$$
>  <Compound>
CC(C)CCSC[C@H]1CCc2cc([C@H]3CC[C@](N)(COP(=O)(O)O)C3)ccc2C1 [compound 511]

>  <Reported Measurement>
10 to 100 nM

$$$$

Enquiry: Entry under review: CCCCCO[C@H]1CCc2cc([C@@H]3CC[C@](N)(COP(=O)(O)O)C3)ccc2C1 [compound 434] . Reported EC50?
Return: 10 to 100 nM

Enquiry: Entry under review: COc1ccc(C[C@H]2CCc3cc([C@H]4CC[C@](N)(COP(=O)(O)O)C4)ccc3C2)cc1 [compound 568] . Reported EC50?
Return: < 10 nM

###

Here the recorded pEC50 is given for each entry.
target: S1P1 (membranes prepared from S1P1/CHO cells) (Homo sapiens (Human), UniProt P21453); assay: Receptor [35S] GTPγS binding assay (S1P1 GTPγS); format: biochemical; conditions: phosphate examples; read-out: S1P1 GTPγS
pEC50: −log10 of the molar value.

For orientation, consider the following solved cases.
>  <Compound>
CCCCOC[C@@H]1CCc2cc([C@H]3CC[C@](N)(COP(=O)(O)O)C3)ccc2C1

>  <pEC50>
6.00 to 7.00

$$$$
>  <Compound>
CCCSC[C@H]1CCc2cc([C@H]3CC[C@](N)(COP(=O)(O)O)C3)ccc2C1 [compound 502]

>  <pEC50>
7.00 to 8.00

$$$$
>  <Compound>
CC(C)OCCCC[C@H]1CCc2cc([C@H]3CC[C@](N)(COP(=O)(O)O)C3)ccc2C1

>  <pEC50>
> 8.00

$$$$

Enquiry: Entry under review: C/C=C\CCC[C@H]1CCc2cc([C@H]3CC[C@](N)(COP(=O)(O)O)C3)ccc2C1 . Reported pEC50?
Return: > 8.00

Enquiry: Entry under review: COc1cc(OC[C@@H]2CCc3cc([C@H]4CC[C@](N)(COP(=O)(O)O)C4)ccc3C2)ccc1C(C)(C)C . Reported pEC50?
Return: 6.00 to 7.00

Enquiry: Entry under review: N[C@]1(COP(=O)(O)O)CC[C@H](c2ccc3c(c2)CC[C@@H](COCCCC(F)(F)F)C3)C1 . Reported pEC50?
Return: > 8.00

Enquiry: Entry under review: N[C@]1(COP(=O)(O)O)CC[C@H](c2ccc3c(c2)CC[C@@H](CSCCc2ccccn2)C3)C1 . Reported pEC50?
Return: > 8.00

###

biological target: human S1P1 (Homo sapiens (Human)); assay: S1P1 binding assay (33P-S1P radioligand competition, CHO cell membranes); details: phosphate examples; read-out: S1P1 Binding
Sequence (P21453 whole entry): as above
pIC50: −log10 of the molar value.
Here the recorded pIC50 is given for each entry.

>  <Molecule>
CCCSC[C@@H]1CCc2cc([C@H]3CC[C@](N)(COP(=O)(O)O)C3)ccc2C1 [compound 503]

>  <Target Or System>
human S1P1 (Homo sapiens (Human))

>  <Observable>
pIC50

>  <Reported Measurement>
> 8.00

$$$$
>  <Molecule>
N[C@]1(COP(=O)(O)O)CC[C@@H](c2ccc3c(c2)CC[C@H](CSc2ccccc2)C3)C1 [compound 507]

>  <Target Or System>
human S1P1 (Homo sapiens (Human))

>  <Observable>
pIC50

>  <Reported Measurement>
6.00 to 7.00

$$$$
>  <Molecule>
CCSCC[C@@H]1CCc2cc([C@H]3CC[C@](N)(COP(=O)(O)O)C3)ccc2C1 [compound 533]

>  <Target Or System>
human S1P1 (Homo sapiens (Human))

>  <Observable>
pIC50

>  <Reported Measurement>
> 8.00

$$$$
>  <Molecule>
COc1cccc(CO[C@H]2CCc3cc([C@H]4CC[C@](N)(COP(=O)(O)O)C4)ccc3C2)c1 [compound 442]

>  <Target Or System>
human S1P1 (Homo sapiens (Human))

>  <Observable>
pIC50

>  <Reported Measurement>
> 8.00

$$$$
>  <Molecule>
CN(C)CCCCC[C@@H]1CCc2cc([C@H]3CC[C@](N)(COP(=O)(O)O)C3)ccc2C1 [compound 561]

>  <Target Or System>
human S1P1 (Homo sapiens (Human))

>  <Observable>
pIC50

>  <Reported Measurement>
6.00 to 7.00

$$$$
>  <Molecule>
N[C@]1(COP(=O)(O)O)CC[C@H](c2ccc3c(c2)CC[C@H](C[S+]([O-])c2ccccc2)C3)C1 (stereo partly drawn) [Example 667]

>  <Target Or System>
human S1P1 (Homo sapiens (Human))

>  <Observable>
pIC50

>  <Reported Measurement>
6.00 to 7.00

$$$$

Enquiry: Entry under review: CC(C)=CCOC[C@@H]1CCc2cc([C@H]3CC[C@](N)(COP(=O)(O)O)C3)ccc2C1 [compound 453] . Reported pIC50?
Return: 7.00 to 8.00

Enquiry: Entry under review: CC(C)SCC[C@H]1CCc2cc([C@H]3CC[C@](N)(COP(=O)(O)O)C3)ccc2C1 [compound 536] . Reported pIC50?
Return: > 8.00

Enquiry: Entry under review: COCc1cccc(C[C@@H]2CCc3cc([C@H]4CC[C@](N)(COP(=O)(O)O)C4)ccc3C2)c1 [compound 552] . Reported pIC50?
Return: > 8.00

Enquiry: Entry under review: N[C@@]1(COP(=O)(O)O)CC[C@@H](c2ccc3c(c2)CC[C@H](CCc2ccc4ccccc4n2)C3)C1 (single isomer, unassigned) [compound 604] . Reported pIC50?
Return: 6.00 to 7.00

Enquiry: Entry under review: COCCCCC[C@@H]1CCc2cc(C3CCC(N)(COP(=O)(O)O)C3)ccc2C1 (single isomer, unassigned) [compound 599] . Reported pIC50?
Return: > 8.00

###

molecular target: human S1P1 (Homo sapiens (Human)); assay: S1P1 binding assay (33P-S1P radioligand competition, CHO cell membranes); details: phosphate examples; read-out: S1P1 Binding
Observable: IC50

For orientation, consider the following solved cases.
>  <Molecule>
C/C(=N\OCc1ccccc1)[C@@H]1CCc2cc([C@H]3CC[C@](N)(COP(=O)(O)O)C3)ccc2C1 [compound 664]

>  <IC50>
< 10 nM

$$$$
>  <Molecule>
N[C@]1(COP(=O)(O)O)CC[C@H](c2ccc3c(c2)CC[C@@H](COCCCC(F)(F)F)C3)C1 [compound 451]

>  <IC50>
< 10 nM

$$$$
>  <Molecule>
COc1ccc(SC[C@@H]2CCc3cc([C@H]4CC[C@](N)(COP(=O)(O)O)C4)ccc3C2)cc1OC [compound 531]

>  <IC50>
10 to 100 nM

$$$$
>  <Molecule>
CCCC/C=C\CO[C@H]1CCc2cc([C@H]3CC[C@](N)(COP(=O)(O)O)C3)ccc2C1 [compound 440]

>  <IC50>
< 10 nM

$$$$
>  <Molecule>
COc1ccc(CC[C@H]2CCc3cc([C@@H]4CC[C@@](N)(COP(=O)(O)O)C4)ccc3C2)cc1 [compound 594]

>  <IC50>
10 to 100 nM

$$$$
>  <Molecule>
CC(C)Oc1cccc(C[C@@H]2CCc3cc([C@H]4CC[C@](N)(COP(=O)(O)O)C4)ccc3C2)c1 [compound 560]

>  <IC50>
10 to 100 nM

$$$$

Enquiry: Entry under review: C/C=C\CCC[C@@H]1CCc2cc([C@H]3CC[C@](N)(COP(=O)(O)O)C3)ccc2C1 [compound 656] . Reported IC50?
Return: 10 to 100 nM

Enquiry: Entry under review: COc1cc(OC[C@@H]2CCc3cc([C@H]4CC[C@](N)(COP(=O)(O)O)C4)ccc3C2)ccc1C(C)(C)C [compound 498] . Reported IC50?
Return: 10 to 100 nM

Enquiry: Entry under review: CCCCCO[C@H]1CCc2cc([C@H]3CC[C@](N)(COP(=O)(O)O)C3)ccc2C1 [compound 431] . Reported IC50?
Return: 10 to 100 nM

Enquiry: Entry under review: CCCCCC[C@H]1Cc2ccc([C@H]3CC[C@](N)(COP(=O)(O)O)C3)cc2CO1 [compound 426] . Reported IC50?
Return: 10 to 100 nM

Enquiry: Entry under review: N[C@]1(COP(=O)(O)O)CC[C@H](c2ccc3c(c2)CC[C@H](c2ccccc2)C3)C1 [compound 569] . Reported IC50?
Return: < 10 nM

Enquiry: Entry under review: COc1cc(CC[C@H]2CCc3cc([C@@H]4CC[C@@](N)(COP(=O)(O)O)C4)ccc3C2)ccc1F (single isomer, unassigned) [compound 608] . Reported IC50?
Return: < 10 nM
